target: Protein smoothened (Homo sapiens); assay: Displacement of Bodipy-labelled cyclopamine from Smo expressed in COS-1 cells in presence of 2% FBS after 4 to 6 hrs by FACS flow cytometric analysis; type: cell-based
attribute-measured: IC50

**Q:** Data request, read-out IC50, for COc1cc2ccccc2nc1-c1noc(C2CCN(C(=O)Nc3ccccc3Cl)CC2)n1
**A:** > 2.5 µM

**Q:** Which IC50 reading was recorded for the compound COc1ccc(NC(=O)N2CCC(c3nc(-c4ccc5ccccc5n4)no3)CC2)cc1 ?
**A:** > 2.5 µM

**Q:** I'd like to know its IC50. The compound in question is COc1cc(-c2noc(C3CCN(C(=O)Nc4ccccc4Cl)CC3)n2)nc2ccccc12
**A:** > 2.5 µM

----------
Could you please report measured pIC50 for the items listed next?
molecular target: Protein smoothened (Homo sapiens, UniProt Q99835); assay: Inhibition of Bodipy-labelled cyclopamine binding to Smo expressed in COS-1 cells in presence of 20% NHS after 4 to 6 hrs by FACS flow cytometric analysis; assay type: cell-based
Sequence (Q99835 whole entry): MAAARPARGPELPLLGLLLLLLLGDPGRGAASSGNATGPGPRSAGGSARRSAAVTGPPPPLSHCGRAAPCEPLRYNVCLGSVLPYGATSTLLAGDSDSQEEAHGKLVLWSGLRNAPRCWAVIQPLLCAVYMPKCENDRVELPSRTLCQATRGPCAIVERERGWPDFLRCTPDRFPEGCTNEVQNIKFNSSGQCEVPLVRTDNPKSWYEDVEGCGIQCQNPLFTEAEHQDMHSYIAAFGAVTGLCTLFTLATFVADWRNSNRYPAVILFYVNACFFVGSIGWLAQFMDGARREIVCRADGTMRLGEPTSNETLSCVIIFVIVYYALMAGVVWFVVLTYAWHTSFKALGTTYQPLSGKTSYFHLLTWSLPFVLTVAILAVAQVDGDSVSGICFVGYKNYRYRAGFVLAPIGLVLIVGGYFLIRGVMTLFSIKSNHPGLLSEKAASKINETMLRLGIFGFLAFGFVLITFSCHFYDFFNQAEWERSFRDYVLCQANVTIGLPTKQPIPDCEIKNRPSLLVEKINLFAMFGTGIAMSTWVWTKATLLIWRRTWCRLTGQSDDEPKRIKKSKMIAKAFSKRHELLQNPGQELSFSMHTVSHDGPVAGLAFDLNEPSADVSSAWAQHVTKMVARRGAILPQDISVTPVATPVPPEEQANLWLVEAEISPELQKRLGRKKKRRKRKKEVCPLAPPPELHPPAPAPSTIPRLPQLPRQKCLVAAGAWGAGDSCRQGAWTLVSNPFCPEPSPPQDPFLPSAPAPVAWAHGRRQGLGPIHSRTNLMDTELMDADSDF
pIC50: −log10 of the molar value.

**Q:** I have this compound here, CS(=O)(=O)c1ccc(Cl)c(NC(=O)N2CCC(c3nc(-c4ccc5ccccc5n4)no3)CC2)c1 , and I need its recorded pIC50.
**A:** < 5.60

**Q:** Can you look up the measured pIC50 of COc1ccc2ccc(-c3noc(C4CCN(C(=O)Nc5ccccc5Cl)CC4)n3)nc2c1 for me?
**A:** < 5.60

**Q:** Request the reported pIC50 associated with COc1cccc2nc(-c3noc(C4CCN(C(=O)Nc5ccccc5Cl)CC4)n3)ccc12
**A:** < 5.60
